# Test system: K98450-129-R-PDC multicell spheroids, viability;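 further: spheroids exposed to agents for seven days before read-out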
# experiment_summary: Anticancer human tumor K98450-129-R-PDC patient-derived colon adenocarcinoma cell line growth inhibition [PI3K]
# assay_context: second compound 3.16 µM; first compound 0.0316 µM; hits give low values
measured_property: viability, T/C (%)
Provide the reading as a plain figure in %.

What value of viability, T/C on K98450-129-R-PDC multicell spheroids, viability does CC1(C)CCC(Nc2ncc(C(F)(F)F)c(-c3c[nH]c4c(P(C)(C)=O)c(C#N)ccc34)n2)CN1 (centres undefined) + CC(Nc1ncnc2nc[nH]c12)c1cc2cccc(Cl)c2c(=O)n1-c1ccccc1 have?
101

What value of viability, T/C on K98450-129-R-PDC multicell spheroids, viability does CC1(C)CCC(CN2CCN(c3ccc(C(=O)NS(=O)(=O)c4ccc(NCC5CCOCC5)c([N+](=O)[O-])c4)c(Oc4cnc5[nH]ccc5c4)c3)CC2)=C(c2ccc(Cl)cc2)C1 + CC(Nc1ncnc2nc[nH]c12)c1cc2cccc(Cl)c2c(=O)n1-c1ccccc1 have?
85.8

What value of viability, T/C on K98450-129-R-PDC multicell spheroids, viability does CC1(C)CCC(CN2CCN(c3ccc(C(=O)NS(=O)(=O)c4ccc(NCC5CCOCC5)c([N+](=O)[O-])c4)c(Oc4cnc5[nH]ccc5c4)c3)CC2)=C(c2ccc(Cl)cc2)C1 + Cc1nc(NC(=O)N2CCCC2C(N)=O)sc1-c1ccnc(C(C)(C)C(F)(F)F)c1 have?
80.6

What value of viability, T/C on K98450-129-R-PDC multicell spheroids, viability does CCN1CCN(Cc2ccc(Nc3ncc(F)c(-c4cc(F)c5nc(C)n(C(C)C)c5c4)n3)nc2)CC1 + Cc1nc(NC(=O)N2CCCC2C(N)=O)sc1-c1ccnc(C(C)(C)C(F)(F)F)c1 have?
86.2

What value of viability, T/C on K98450-129-R-PDC multicell spheroids, viability does CCCS(=O)(=O)Nc1ccc(F)c(C(=O)c2c[nH]c3ncc(-c4ccc(Cl)cc4)cc23)c1F + Cc1nc(NC(=O)N2CCCC2C(N)=O)sc1-c1ccnc(C(C)(C)C(F)(F)F)c1 have?
84

What value of viability, T/C on K98450-129-R-PDC multicell spheroids, viability does CC(C)n1nc(-c2ccc3oc(N)nc3c2)c2c(N)ncnc21 + Cc1nc(NC(=O)N2CCCC2C(N)=O)sc1-c1ccnc(C(C)(C)C(F)(F)F)c1 have?
77.9

What value of viability, T/C on K98450-129-R-PDC multicell spheroids, viability does Cn1ncnc1[C@H]1c2n[nH]c(=O)c3cc(F)cc(c23)N[C@@H]1c1ccc(F)cc1 + Cc1nc(NC(=O)N2CCCC2C(N)=O)sc1-c1ccnc(C(C)(C)C(F)(F)F)c1 have?
91.6

What value of viability, T/C on K98450-129-R-PDC multicell spheroids, viability does CNC(=O)c1ccc(N2C(=S)N(c3ccc(C#N)c(C(F)(F)F)c3)C(=O)C2(C)C)cc1F + Cc1nc(NC(=O)N2CCCC2C(N)=O)sc1-c1ccnc(C(C)(C)C(F)(F)F)c1 have?
81.1

What value of viability, T/C on K98450-129-R-PDC multicell spheroids, viability does CCCS(=O)(=O)Nc1ccc(F)c(C(=O)c2c[nH]c3ncc(-c4ccc(Cl)cc4)cc23)c1F + CC(Nc1ncnc2nc[nH]c12)c1cc2cccc(Cl)c2c(=O)n1-c1ccccc1 have?
97.1

The origin of these recorded values is PubChem BioAssay AID1963961.
